# tgt: QR1 (Oryctolagus cuniculus)
# Sequence (U3KNP2 1-274): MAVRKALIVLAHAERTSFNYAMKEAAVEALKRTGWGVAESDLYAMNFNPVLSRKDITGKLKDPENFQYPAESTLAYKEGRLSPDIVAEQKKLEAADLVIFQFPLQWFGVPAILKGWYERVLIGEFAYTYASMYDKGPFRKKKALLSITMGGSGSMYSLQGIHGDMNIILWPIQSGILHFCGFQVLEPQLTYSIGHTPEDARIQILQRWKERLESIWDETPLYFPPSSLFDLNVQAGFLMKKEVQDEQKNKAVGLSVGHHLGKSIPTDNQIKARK
# runDescription: QR1 activity assay (Example 2)
# Format: biochemical, rabbit
# Parameters: QR1 was purified from rabbit liver as previously described; from tissue; host or cells: rabbit liver
resultType: pIC50
On this scale, pIC50 is minus log10 of a concentration expressed in M (mol/L).

# input # lookup: pIC50 of COc1cc(NC(C)CCCN)c2ncccc2c1 (centres unmarked) [PQ, primaquine]
# output 3.91

* * *

Recorded measurements of Ki, one per entry
# tgt: QR2 (Homo sapiens, UniProt P16083)
# Sequence (P16083 whole entry): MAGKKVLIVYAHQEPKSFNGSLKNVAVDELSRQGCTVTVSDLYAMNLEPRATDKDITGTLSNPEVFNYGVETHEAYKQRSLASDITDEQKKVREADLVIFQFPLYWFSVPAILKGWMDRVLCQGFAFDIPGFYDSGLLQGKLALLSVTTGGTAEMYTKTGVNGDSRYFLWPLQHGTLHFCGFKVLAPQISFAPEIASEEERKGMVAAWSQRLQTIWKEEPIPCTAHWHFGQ
# runDescription: QR2 activity assay with recombinant QR2 (Example 2)
# Type: biochemical
# Set-up: GST (N, cleaved yes); made in house; E. coli only by inference
# experimentalSetup: recombinant QR2; 50 μM NMeH, 5-30 μM menadione; read-out: QR2 K1 (μM) ± SEM
Answer with a number only, understood to be in µM.

Worked set:
> print(dat)
                                   molecule  resulttype  readoutvalue
1  OC(c1cc(C(F)(F)F)nc2c(C(F)(F)F)cccc12)C1CCCCN1 (stereo not drawn)          Ki            17
2  C=C[C@H]1C[N@@]2CC[C@H]1C[C@H]2[C@H](O)c1ccnc2ccc(OC)cc12          Ki           252

# input # lookup: Ki of CCN(CC)CCCC(C)Nc1ccnc2cc(Cl)ccc12 (stereo not drawn)
# output 0.61
